Test system: Mycobacterium tuberculosis
assay_procedure: Antitubercular activity against Mycobacterium tuberculosis H37Rv after 72 hrs by microplate alamar blue assay
Format: functional
value_type: MIC (µM)

{"columns": ["smiles_string", "tested_target", "value_type", "modifier_sign", "assay_result"],
 "data": [
  ["NNC(=O)c1cc(COc2cc(C(F)(F)F)nc3c(C(F)(F)F)cccc23)on1", "Mycobacterium tuberculosis", "MIC", ">", 128],
  ["CCOC(=O)c1cc(COc2ccc3ncccc3c2)on1", "Mycobacterium tuberculosis", "MIC", "=", 7.4],
  ["CCc1noc(-c2cc(COc3cc(C(F)(F)F)nc4c(C(F)(F)F)cccc34)on2)n1", "Mycobacterium tuberculosis", "MIC", ">", 128],
  ["O=C(OCCC(F)(F)F)c1cc(COc2cc(C(F)(F)F)nc3c(C(F)(F)F)cccc23)on1", "Mycobacterium tuberculosis", "MIC", "=", 25],
  ["CC(=O)OCc1cc(COc2cc(C(F)(F)F)nc3c(C(F)(F)F)cccc23)on1", "Mycobacterium tuberculosis", "MIC", ">", 128],
  ["CCN(CC)C(=O)c1cc(COc2cc(C(F)(F)F)nc3c(C(F)(F)F)cccc23)on1", "Mycobacterium tuberculosis", "MIC", ">", 128],
  ["CCOC(=O)c1cc(COc2ccc3ccc(C(F)(F)F)nc3c2)on1", "Mycobacterium tuberculosis", "MIC", "=", 3.6],
  ["CCOC(=O)c1cc(COc2cc(C(F)(F)F)nc3c(C(F)(F)F)cccc23)on1", "Mycobacterium tuberculosis", "MIC", "=", 0.9],
  ["CCOC(=O)c1cc(COc2ccnc3ccccc23)on1", "Mycobacterium tuberculosis", "MIC", "=", 25.1],
  ["CCCCCCOC(=O)c1cc(COc2cc(C(F)(F)F)nc3c(C(F)(F)F)cccc23)on1", "Mycobacterium tuberculosis", "MIC", "=", 15.3],
  ["NC(=O)c1cc(COc2cc(C(F)(F)F)nc3c(C(F)(F)F)cccc23)on1", "Mycobacterium tuberculosis", "MIC", ">", 128],
  ["CCOC(=O)c1cc(COc2ccc3ccccc3n2)on1", "Mycobacterium tuberculosis", "MIC", "=", 103],
  ["CCOC(=O)c1cc(COc2cccc3ncccc23)on1", "Mycobacterium tuberculosis", "MIC", "=", 35.1],
  ["O=C(c1cc(COc2cc(C(F)(F)F)nc3c(C(F)(F)F)cccc23)on1)N1CCCCO1", "Mycobacterium tuberculosis", "MIC", ">", 128],
  ["CCOC(=O)c1cc(COc2cccc3cccnc23)on1", "Mycobacterium tuberculosis", "MIC", "=", 39.8]
]}

----------
assay_procedure: Selectivity index, ratio of IC50 for african green monkey Vero cells to MIC for Mycobacterium tuberculosis H37Rv by low oxygen recovery assay
Format: functional

{"columns": ["smiles_string", "Selectivity Index"],
 "data": [
  ["CCOC(=O)c1cc(COc2cc(C(F)(F)F)nc3c(C(F)(F)F)cccc23)on1", ">10.5"],
  ["O=C(OCCC(F)(F)F)c1cc(COc2cc(C(F)(F)F)nc3c(C(F)(F)F)cccc23)on1", ">4.3"],
  ["CCOC(=O)c1cc(COc2ccc3ncccc3c2)on1", ">10"],
  ["O=C(OCc1ccccc1)c1cc(COc2cc(C(F)(F)F)nc3c(C(F)(F)F)cccc23)on1", ">2.5"],
  ["CCCOC(=O)c1cc(COc2cc(C(F)(F)F)nc3c(C(F)(F)F)cccc23)on1", ">4.9"],
  ["CCOC(=O)c1cc(COc2cc(C(F)(F)F)c3nc(C(F)(F)F)cc(OCc4cc(C(=O)OCC)no4)c3c2)on1", ">8.2"]
]}
